- assay summary: In vivo pharmacokinetics, mouse
- measurement setup: mouse, plasma
quantity measured: half-life
Could you kindly put the unit after your number?

INPUT: Request the reported half-life associated with CNc1cc(Nc2cccn(-c3ccccn3)c2=O)nc2c(C(=O)N[C@@H]3CC[C@H]3OC)cnn12
OUTPUT: 2 h

---

- assay summary: In vivo pharmacokinetics, rat
- measurement setup: plasma, 10 mg/kg; Rat; PO 10 mpk
quantity measured: bioavailability (%)
Number in %, nothing else.

INPUT: Fill in: bioavailability of CNc1cc(Nc2cccn(-c3ccccn3)c2=O)nc2c(C(=O)N[C@@H]3CC[C@H]3OC)cnn12 is ___
OUTPUT: 63
